Source listed as paper PMC5843698.

Experiment: In vitro binding assay: free test drug recovered after 3 h incubation with and without patiromer in SGF, acetate buffer or SIF
Details: acetate buffer pH 4.5; patiromer 25.2 g/L, 3 h, 37°C; geometric mean of 12 replicates
Structures can show the parent of a compound that is named as a salt.
// values below are reported In Vitro Binding (% Drug Recovered) Acetate Buffer (pH 4.5)
Numbers only; they are read as %.

Below, 4 compounds whose answers are already recorded.
- Compound: "Oc1ncnc2[nH]ncc12 [Allopurinol]"
  Measured number: 90.1
- Compound: "NCCCC[C@H](N[C@@H](CCc1ccccc1)C(=O)O)C(=O)N1CCC[C@H]1C(=O)O [Lisinopril]"
  Measured number: 100.7
- Compound: "COc1ccc(-n2nc(C(N)=O)c3c2C(=O)N(c2ccc(N4CCCCC4=O)cc2)CC3)cc1 [Apixaban]"
  Measured number: 97.3
- Compound: "NS(=O)(=O)c1cc(C(=O)O)c(NCc2ccco2)cc1Cl [Furosemide]"
  Measured number: 94.5

Qu. Name the recorded In Vitro Binding (% Drug Recovered) Acetate Buffer (pH 4.5) for CC(=O)S[C@@H]1CC2=CC(=O)CC[C@]2(C)[C@H]2CC[C@@]3(C)[C@@H](CC[C@@]34CCC(=O)O4)[C@H]12 [Spironolactone] .
Ans. 98.6

Qu. Can you look up the measured In Vitro Binding (% Drug Recovered) Acetate Buffer (pH 4.5) of O=C(NC[C@H]1CN(c2ccc(N3CCOCC3=O)cc2)C(=O)O1)c1ccc(Cl)s1 [Rivaroxaban] for me?
Ans. 92.9

Qu. Endpoint output: In Vitro Binding (% Drug Recovered) Acetate Buffer (pH 4.5) of CC1(C)S[C@@H]2[C@H](NC(=O)[C@H](N)c3ccc(O)cc3)C(=O)N2[C@H]1C(=O)O [Amoxicillin] . Value?
Ans. 99.2

Qu. // query In Vitro Binding (% Drug Recovered) Acetate Buffer (pH 4.5) value for entry C[C@@H](NCCCc1cccc(C(F)(F)F)c1)c1cccc2ccccc12 [Cinacalcet HCl]
Ans. 19.3

Qu. Entry CCCCC(=O)N(Cc1ccc(-c2ccccc2-c2nnn[nH]2)cc1)[C@H](C(=O)O)C(C)C [Valsartan] has what In Vitro Binding (% Drug Recovered) Acetate Buffer (pH 4.5)?
Ans. 101.4

Qu. Entry Cc1ncc(C[n+]2csc(CCO)c2C)c(N)n1 [Thiamin] : reported In Vitro Binding (% Drug Recovered) Acetate Buffer (pH 4.5) = ?
Ans. 50.7

Qu. What measured In Vitro Binding (% Drug Recovered) Acetate Buffer (pH 4.5) goes with O=C1NC(=O)C(c2ccccc2)(c2ccccc2)N1 [Phenytoin sodium] ?
Ans. 90.2

Qu. Entry CC(C)c1c(C(=O)Nc2ccccc2)c(-c2ccccc2)c(-c2ccc(F)cc2)n1CC[C@@H](O)C[C@@H](O)CC(=O)O [Atorvastatin calcium] : reported In Vitro Binding (% Drug Recovered) Acetate Buffer (pH 4.5) = ?
Ans. 93.3

Qu. Please give the measured In Vitro Binding (% Drug Recovered) Acetate Buffer (pH 4.5) for this compound: CN(C)C(=N)N=C(N)N [Metformin HCl]
Ans. 81.8

Qu. Suppose we examine the compound CC(=O)Oc1ccccc1C(=O)O [Aspirin] ; what In Vitro Binding (% Drug Recovered) Acetate Buffer (pH 4.5) value has been reported?
Ans. 99.8

Qu. Dear colleague, I am looking for the recorded In Vitro Binding (% Drug Recovered) Acetate Buffer (pH 4.5) of the following compound: O=C([O-])[O-].[Li+].[Li+] [Lithium carbonate]
Ans. 88.8

Qu. In Vitro Binding (% Drug Recovered) Acetate Buffer (pH 4.5) lookup needed for CC1=C(C(=O)O)N2C(=O)[C@@H](NC(=O)[C@H](N)c3ccccc3)[C@H]2SC1 [Cephalexin] , thanks.
Ans. 95

Qu. Field request: In Vitro Binding (% Drug Recovered) Acetate Buffer (pH 4.5) | item: COc1cc(Cc2cnc(N)nc2N)cc(OC)c1OC [Trimethoprim]
Ans. 55.3
